The measured values listed here are drawn from patent US20120045438A1.

target: T1, human IL-13 R130Q variant (R110Q of the mature chain) (human, UniProt P35225 35-146, Biotinylated on amines (NHS-LC-biotin, 4:1) in ELISA, panning and competition assays. The letters are unchanged.); assay: competition ELISA, biotinylated IL-13 R130Q binding to plate-bound IL-13Ra2, crude supernatant
T1 construct: R130Q counts from Met 1 of the signal peptide, R110Q on the mature chain; Bought from Peprotech; also called IL-13 R110Q; b-R130Q
Attribute measured: Percent Inhibition IL-13 R130Q (333 ng/ml) to Ra2 (%)

- Binder: "Lc8Hc2 (antibody, V domains shown) VH: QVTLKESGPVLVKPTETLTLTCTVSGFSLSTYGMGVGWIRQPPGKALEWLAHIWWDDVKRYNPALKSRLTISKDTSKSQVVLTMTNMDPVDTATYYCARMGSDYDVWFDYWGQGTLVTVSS VL: DIQMTQSPSTLSASVGDRVTITCRASKSISKYLAWYQQKPGKAPKLLIYSGSTLQSGVPSRFSGSGSGTEFTLTISSLQPDDFATYYCQQHNEYPYTFGQGTRLEIK"
  Measured value: 55
- Binder: "Lc15Hc2 (antibody, V domains shown) VH: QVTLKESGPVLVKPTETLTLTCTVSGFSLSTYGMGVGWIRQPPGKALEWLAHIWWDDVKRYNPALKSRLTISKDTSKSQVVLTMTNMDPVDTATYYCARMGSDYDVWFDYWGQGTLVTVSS VL: VIWMTQSPSLLSASTGDRVTISCRASKSISKYLAWYQQKPGKAPELLIYSGSTLQSGVPSRFSGSGSGTDFTLTISCLQSEDFATYYCQQHNEYPYTFGGGTKVEIK"
  Measured value: 61
- Binder: "Lc10Hc2 (antibody, V domains shown) VH: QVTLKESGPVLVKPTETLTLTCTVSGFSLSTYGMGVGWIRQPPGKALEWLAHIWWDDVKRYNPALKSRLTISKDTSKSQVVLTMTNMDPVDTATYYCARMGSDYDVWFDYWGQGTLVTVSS VL: DIQLTQSPSFLSASVGDRVTITCRASKSISKYLAWYQQKPGKAPKLLIYSGSTLQSGVPSRFSGSGSGTEFTLTISSLQPEDFATYYCQQHNEYPYTFGGGTKVEIK"
  Measured value: 57
- Binder: "Lc11Hc2 (antibody, V domains shown) VH: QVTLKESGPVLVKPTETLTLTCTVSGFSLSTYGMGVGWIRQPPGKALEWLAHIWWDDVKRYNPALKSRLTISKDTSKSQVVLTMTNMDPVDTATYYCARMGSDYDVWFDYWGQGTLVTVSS VL: AIRMTQSPSSFSASTGDRVTITCRASKSISKYLAWYQQKPGKAPKLLIYSGSTLQSGVPSRFSGSGSGTDFTLTISCLQSEDFATYYCQQHNEYPYTFGGGTKVEIK"
  Measured value: 51
